- testSystem: T1, GFP-9S library array, motif 4 ND N98E;D124P (synthetic construct, N98E;D124P)
- T1 chain: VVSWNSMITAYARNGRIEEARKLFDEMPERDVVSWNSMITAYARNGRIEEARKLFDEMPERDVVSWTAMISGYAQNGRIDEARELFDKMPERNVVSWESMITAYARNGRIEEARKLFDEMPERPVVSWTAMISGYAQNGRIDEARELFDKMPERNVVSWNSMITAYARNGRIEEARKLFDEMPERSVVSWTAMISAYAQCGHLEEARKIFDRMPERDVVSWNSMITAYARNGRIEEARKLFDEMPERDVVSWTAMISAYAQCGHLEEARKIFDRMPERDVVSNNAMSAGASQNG
- testDescription: high-throughput RNA pulldown from lysate on Ni-NTA beads; HRP: 50 mM Tris pH 8, 150 mM NaCl, 1 mM beta-mercaptoethanol, 50 ug/ml BSA, 3 ug/ml yeast RNA, 0.5% heparin; ITC and FP: Tris pH 8, 200 mM KCl, 5% glycerol; MST: 50 mM Tris pH 8, 200 mM NaCl, 1 mM DTT, BSA, heparin, 0.05% Tween 20
- conditionParameters: tags: N-terminal His-eGFP; label: 5' Cy5
measurementKind: Kd (nM)
Numbers only, in nM.

{"binder": "AUUAGACGUGA (ssRNA) [Cy5-rpoA-G]", "Kd (nM)": 102}

Now for the binder whose Kd we want.
Sample AUUACACGUGA (ssRNA) [Cy5-rpoA] ; Kd observed: 130

From: paper PMC8809517
